Biological target: Adrenergic receptor alpha-2 (Rattus norvegicus, UniProt P22086+P19328+P22909)
Sequence (P22086 whole entry): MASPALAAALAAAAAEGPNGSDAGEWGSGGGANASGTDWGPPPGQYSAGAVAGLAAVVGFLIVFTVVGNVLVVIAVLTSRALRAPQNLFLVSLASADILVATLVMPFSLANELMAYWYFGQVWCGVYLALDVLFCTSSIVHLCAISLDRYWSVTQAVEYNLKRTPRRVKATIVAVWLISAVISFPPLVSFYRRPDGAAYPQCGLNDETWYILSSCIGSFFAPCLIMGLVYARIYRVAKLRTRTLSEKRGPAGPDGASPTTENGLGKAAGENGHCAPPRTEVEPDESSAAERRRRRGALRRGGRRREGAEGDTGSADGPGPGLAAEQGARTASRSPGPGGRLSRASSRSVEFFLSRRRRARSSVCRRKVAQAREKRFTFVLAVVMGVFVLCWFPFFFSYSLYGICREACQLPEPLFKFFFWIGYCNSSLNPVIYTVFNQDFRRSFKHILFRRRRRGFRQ
Sequence (P19328 whole entry): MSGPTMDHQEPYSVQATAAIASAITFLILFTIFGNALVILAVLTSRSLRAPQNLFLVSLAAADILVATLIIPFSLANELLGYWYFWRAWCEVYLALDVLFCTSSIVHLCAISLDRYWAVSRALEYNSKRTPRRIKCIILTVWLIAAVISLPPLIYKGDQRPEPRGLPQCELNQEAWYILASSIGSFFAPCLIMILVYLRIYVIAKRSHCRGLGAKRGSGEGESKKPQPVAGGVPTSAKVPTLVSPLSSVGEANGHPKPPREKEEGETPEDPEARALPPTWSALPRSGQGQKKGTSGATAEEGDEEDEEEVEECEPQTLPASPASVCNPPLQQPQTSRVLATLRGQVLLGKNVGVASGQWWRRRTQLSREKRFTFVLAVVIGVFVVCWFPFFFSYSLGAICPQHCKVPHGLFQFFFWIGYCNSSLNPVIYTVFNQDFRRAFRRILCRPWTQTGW
Sequence (P22909 whole entry): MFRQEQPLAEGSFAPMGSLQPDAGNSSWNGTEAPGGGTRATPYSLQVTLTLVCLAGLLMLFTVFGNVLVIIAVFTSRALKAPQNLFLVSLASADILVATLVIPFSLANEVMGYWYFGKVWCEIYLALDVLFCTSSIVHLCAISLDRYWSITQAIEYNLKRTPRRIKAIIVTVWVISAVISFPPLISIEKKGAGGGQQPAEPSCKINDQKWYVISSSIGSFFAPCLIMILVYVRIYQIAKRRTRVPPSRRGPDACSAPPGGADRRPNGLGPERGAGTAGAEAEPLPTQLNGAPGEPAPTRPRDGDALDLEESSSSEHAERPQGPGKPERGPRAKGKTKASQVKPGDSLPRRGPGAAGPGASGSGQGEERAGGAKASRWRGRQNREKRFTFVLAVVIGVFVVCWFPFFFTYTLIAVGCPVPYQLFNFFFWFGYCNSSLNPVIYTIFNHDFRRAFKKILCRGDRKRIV
Test: Binding affinity towards alpha-2 adrenergic receptor in rat cortex membrane using [3H]rauwolscine radioligand
Format: cell membranes
MEASURE: Ki (nM)

Please review the entries below; each comes with its answer.
> print(dat)
                            smiles.notation                           subject.of.test  unit.of.measurement  observed.measurement
1  COc1ccccc1OCCN1CCN(c2cnn(CCCN3CCN(c4ccccc4OC)CC3)c(=O)c2Cl)CC1  Adrenergic receptor alpha-2 (Rattus norvegicus, UniProt P22086+P19328+P22909)                   nM                   245
2  COc1ccccc1N1CCN(CCCCCCn2nc(N3CCN(C(=O)c4ccco4)CC3)ccc2=O)CC1  Adrenergic receptor alpha-2 (Rattus norvegicus, UniProt P22086+P19328+P22909)                   nM                   100

(1) O=C(c1ccco1)N1CCN(c2cnn(CCCCCN3CCN(c4ccccc4Cl)CC3)c(=O)c2Cl)CC1
(2) O=C(c1ccco1)N1CCN(c2ccc(=O)n(CCN3CCN(c4ccccc4Cl)CC3)n2)CC1
(3) O=C(c1ccco1)N1CCN(c2cnn(CCCN3CCN(c4ccccc4Cl)CC3)c(=O)c2Cl)CC1
Query: # desc sort on Ki across 3 compounds Use the labels to give the requested order.
Result: 3, 2, 1
(3: 85 nM, 2: 52.6 nM, 1: 18 nM)

(A) COc1ccccc1OCCN1CCN(c2ccc(=O)n(CCCCN3CCN(c4ccccc4OC)CC3)n2)CC1
(B) O=C(c1ccco1)N1CCN(c2ccc(=O)n(CCCCCCCN3CCN(c4ccccc4Cl)CC3)n2)CC1
(C) COc1ccccc1N1CCN(CCn2ncc(N3CCN(C(=O)c4ccco4)CC3)c(Cl)c2=O)CC1
(D) O=C(c1ccco1)N1CCN(c2ccc(=O)n(CCCCCN3CCN(c4ccccc4Cl)CC3)n2)CC1
(E) COc1ccccc1OCCN1CCN(c2cnn(CCCCCCCN3CCN(c4ccccc4OC)CC3)c(=O)c2Cl)CC1
Query: # desc sort on Ki across 5 compounds Use the labels to give the requested order.
Result: C, D, A, B, E

(P) COc1ccccc1OCCN1CCN(c2ccc(=O)n(CCCCCN3CCN(c4ccccc4OC)CC3)n2)CC1
(Q) COc1ccccc1OCCN1CCN(c2cnn(CCN3CCN(c4ccccc4Cl)CC3)c(=O)c2Cl)CC1
(R) COc1ccccc1N1CCN(CCCn2ncc(N3CCN(C(=O)c4ccco4)CC3)c(Cl)c2=O)CC1
Query: Ordering: ascending Ki. Use the labels to give the requested order.
Result: P, Q, R
